molecular target: T1, PSMA Fab (006 PSMA Fab) (biotinylated for capture on neutravidin plates (site not stated)); assay: phage ELISA: clonal phage supernatant on biotinylated PSMA Fab captured on neutravidin plate, anti-M13-HRP detection
T1 construct: also called Anti-PSMA Fab; anti-PSMA Fab
Where no end group is shown, it is not given here.
Catalogue of binders with associated Phage binding ELISA signal, Anti-PSMA Fab
Lab note: record just the number, no unit beside it.

Please review the following examples before continuing.
binder: FDRICKPAWMCIEF (Peptide-180 library clone, tested as clonal M13 phage displaying the peptide fused to pIII) [Phage-3275]
experimental result: 1.9
--
binder: EFQMCVPEWMCTGL (Peptide-180 library clone, tested as clonal M13 phage displaying the peptide fused to pIII) [Phage-3276]
experimental result: 1.9
--
binder: MVVRCEPEWMCIGF (Peptide-180 library clone, tested as clonal M13 phage displaying the peptide fused to pIII) [Phage-3274]
experimental result: 1.9
--
binder: ISPRCEPLWMCTGL (Peptide-180 library clone, tested as clonal M13 phage displaying the peptide fused to pIII) [Phage-3269]
experimental result: 1.91
--
binder: LPYMCTPIWMCIGF (Peptide-180 library clone, tested as clonal M13 phage displaying the peptide fused to pIII) [Phage-3267]
experimental result: 1.91
--
binder: SMGLCKPPWMCAGF (not fully specified; cysteine pairing not given here, Peptide-180 library clone, tested as clonal M13 phage displaying the peptide fused to pIII) [Phage-3273]
experimental result: 1.9
--
binder: VEVKCVPEWMCTGF (Peptide-180 library clone, tested as clonal M13 phage displaying the peptide fused to pIII) [Phage-3268]
experimental result: 1.91
--
binder: GGVLCQPAWMCIGF (Peptide-180 library clone, tested as clonal M13 phage displaying the peptide fused to pIII) [Phage-3271]
experimental result: 1.9
--
binder: WNHVCIPTWMCTGM (Peptide-180 library clone, tested as clonal M13 phage displaying the peptide fused to pIII) [Phage-3280]
experimental result: 1.9

Kindly consider the entry below.
Would you kindly share the measured Phage binding ELISA signal, Anti-PSMA Fab for INAWCIPAWMCEGF (Peptide-180 library clone, tested as clonal M13 phage displaying the peptide fused to pIII) [Phage-3272] ? 1.9
